- target under test: RORγ (Homo sapiens)
- Sequence (P51449 whole entry, looked up, the tested form may be a part): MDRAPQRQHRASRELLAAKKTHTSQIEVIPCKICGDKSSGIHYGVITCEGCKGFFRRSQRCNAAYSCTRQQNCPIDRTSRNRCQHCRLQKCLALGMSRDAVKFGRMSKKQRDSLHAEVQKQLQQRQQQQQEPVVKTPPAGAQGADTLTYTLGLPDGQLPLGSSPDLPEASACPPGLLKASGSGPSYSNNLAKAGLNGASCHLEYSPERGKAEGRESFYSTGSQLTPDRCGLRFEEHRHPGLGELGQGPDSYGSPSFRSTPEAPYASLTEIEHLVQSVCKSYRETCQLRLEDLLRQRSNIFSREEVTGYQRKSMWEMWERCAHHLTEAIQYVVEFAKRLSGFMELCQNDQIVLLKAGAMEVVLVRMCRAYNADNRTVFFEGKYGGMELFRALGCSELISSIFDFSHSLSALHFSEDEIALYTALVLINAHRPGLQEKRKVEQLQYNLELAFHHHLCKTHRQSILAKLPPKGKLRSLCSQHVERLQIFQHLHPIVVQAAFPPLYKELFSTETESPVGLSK
- experimental details: RORγ Gal4 Reporter Gene Assay
- Format: cell-based
- Procedure: Determination of a ligand mediated Gal4 promoter driven transactivation to quantify ligand binding to RORγ was performed as follows: DNA encoding three different RORγ protein fragments was cloned into vector pCMV-BD (Stratagene). Expression was under control of a CMV promoter and as fusion to the DNA-binding domain of the yeast protein GAL4. […]
Collected pIC50 (FF) values appear next to each entry.

Worked cases, answers included:
{"columns": ["item smiles", "target under test", "pIC50 (FF)"],
 "data": [
  ["CC(C)(O)CNC(=O)c1nc(CC2CCC2)c(-c2ccc(S(=O)(=O)NC(C)(C)C)c3ccccc23)s1", "RORγ (Homo sapiens)", "6.8/8.4/8.5"],
  ["CC(C)(C)NS(=O)(=O)c1ccc(-c2sc(C(=O)N[C@H]3C[C@H](C(=O)O)C3)nc2CC2CCCCC2)c(F)c1C(F)F", "RORγ (Homo sapiens)", "6.7/8.7/8.5"]
]}

Need pIC50 (FF) of `CC(C)(C)NS(=O)(=O)c1ccc(-c2sc(C(=O)NC3CS(=O)(=O)C3)nc2CC2CCCCC2)c(Cl)c1Cl` , thanks. 7.3/8.7/9.0

Quick one: `CC(C)(C)c1cc(-c2sc(C(=O)N[C@H]3C[C@H](C(=O)O)C3)nc2CC2CCCCC2)cc(C(C)(F)F)c1` 6.4/7.4/7.4

Quick one: `CC(C)(O)CNC(=O)c1nc(CC2CCCCC2)c(-c2ncc(S(=O)(=O)NC(C)(C)C)c3ccccc23)s1` 6.4/7.7/7.7
